# test target: Peptide 5: Biotin-…-[Tyr(PC)]-acid
# Sequence (peptide, as listed by the source): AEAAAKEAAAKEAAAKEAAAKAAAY
# assay overview: scFv ELISA
result type: OD450 (OD450)
Numbers only, in OD450.

Solved cases (2 shown):
[[record]]
binder = "PcOxP_DB02_G06 (scFv, V domains shown, scFv in periplasmic extract) VH: EVQLLESGGGLVQPGGSLRLSCAASGFTFSSYYMEWVRQAPGKGLEWVAASRNQANDYTTEYADSVKGRFTISRDNSKNTLYLQMNSLRAEDTAVYYCARDYYGSPYWYFDVWGQGTLVTVSS VL: DIQMTQSPSSLSASVGDRVTITCTASESLYSSKHKVHYLAWYQQKPGKAPKLLIYGVSNRYIGVPSRFSGSGSGTDFTLTISSLQPEDFATYYCAQFYSYPLTFGGGTKVEIK"
reported_result = 0.87

[[record]]
binder = "PcOxP_DB03_B02 (scFv, V domains shown, scFv in periplasmic extract) VH: EVQLLESGGGLVQPGGSLRLSCAASGFAFSDFYMEWVRQAPGKGLEWVAASRNKANDYTTEYADSVKGRFTISRDNSKNTLYLQMNSLRAEDTAVYYCARDYYGSSYWYFDVWGQGTLVTVSS VL: DIQMTQSPSSLSASVGDRVTITCTASESLYSSKHKVHYLAWYQQKPGKAPKLLIYGASNRYDGVPSRFSGSGSGTDFTLTISSLQPEDFATYYCAQFYEYPLTFGGGTKVEIK"
reported_result = 1.64


**Q:** Name the recorded OD450 for PcOxP_DB02_D10 (scFv, V domains shown, scFv in periplasmic extract) VH: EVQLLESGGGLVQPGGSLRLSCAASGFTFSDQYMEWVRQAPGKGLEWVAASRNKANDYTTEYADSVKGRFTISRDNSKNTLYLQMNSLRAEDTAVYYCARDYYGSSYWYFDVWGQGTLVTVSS VL: DIQMTQSPSSLSASVGDRVTITCTATESLYSSKHKVHYLAWYQQKPGKAPKLLIYGASNRYTGVPSRFSGSGSGTDFTLTISSLQPEDFATYYCAQFYSYPLTFGGGTKVEIK .
**A:** 1.01

These data points were gathered from patent US20250320312A1.
